experiment: PK in mouse brain after i.v. and oral delivery, cassette study in HCT116 tumor-bearing mice
Type: in vivo
conditions: female, athymic nude (CD-1 nu/nu), mouse, iv, i.v. delivery (Cassette Study), Time 48 hr, read-out: HSP90 Compounds in Mouse Brain

compound: CN(C)c1cc2c(cc1Sc1nc3c(N)nccc3n1CCNCC(C)(C)C)OCO2 [Compound 15]
concentration at 48 hr / ng/g: 4.8

----------
experiment: PK in mouse brain after i.v. and oral delivery, cassette study in HCT116 tumor-bearing mice
Format: in vivo
conditions: female, athymic nude (CD-1 nu/nu), mouse, iv, i.v. delivery (Cassette Study), Time 2 hr, read-out: HSP90 Compounds in Mouse Brain
observable: concentration at 2 hr (ng/g)

compound-smiles: CN(C)c1cc2c(cc1Sc1nc3c(N)nccc3n1CCNCC(C)(C)C)OCO2
unit-text: ng/g
value: 773
